Data provenance is patent US20190031624A1.

system: E. coli 25922; assay: Intrinsic MIC assay (CLSI broth microdilution); format: cell-based, Escherichia coli; conditions: Escherichia coli, 18 h; E. coli 25922; without EPI; MIC90; read-out: Antibiotic Activity Against E. coli: Intrinsic MIC
Structures can show the parent of a compound that is named as a salt.
Reported MIC values for the following compounds.

{"columns": ["compound", "MIC"],
 "data": [
  ["Br.N=C(N)SCc1ccc(Br)cc1 [Example 7]", "> 256 µg/mL"],
  ["Br.N=C(N)SCc1ccc(Cl)cc1Cl [Example 2]", "> 256 µg/mL"],
  ["Cl.N=C(N)SCc1ccc(Cl)c(Cl)c1 [Example 1]", "64 µg/mL"],
  ["N=C(N)SCc1cccc2ccccc12 [Example 11, Hydrobromide]", "> 256 µg/mL"],
  ["N=C(N)SCCc1ccc(Cl)c(Cl)c1 [Example 4, 3,4-dichlorophenethyl carbamimidothioate]", "256 µg/mL"],
  ["CN1CN=C(SCc2ccc3ccccc3c2)NC1 [Example 13]", "> 256 µg/mL"],
  ["N=C(N)SCc1ccc2sccc2c1 [Example 16, Hydrobromide]", "> 256 µg/mL"],
  ["N=C(N)SCc1ccc2occc2c1 [Example 15, Hydrobromide]", "> 256 µg/mL"],
  ["Br.N=C(N)SCc1cccc2cccnc12 [Example 19]", "> 256 µg/mL"],
  ["CNC(=N)SCc1ccc(Cl)c(Cl)c1.Cl [Example 6]", "> 256 µg/mL"]
]}
